# test_system: dopamine D3 receptor (Homo sapiens, UniProt P35462)
# Sequence (P35462 whole entry): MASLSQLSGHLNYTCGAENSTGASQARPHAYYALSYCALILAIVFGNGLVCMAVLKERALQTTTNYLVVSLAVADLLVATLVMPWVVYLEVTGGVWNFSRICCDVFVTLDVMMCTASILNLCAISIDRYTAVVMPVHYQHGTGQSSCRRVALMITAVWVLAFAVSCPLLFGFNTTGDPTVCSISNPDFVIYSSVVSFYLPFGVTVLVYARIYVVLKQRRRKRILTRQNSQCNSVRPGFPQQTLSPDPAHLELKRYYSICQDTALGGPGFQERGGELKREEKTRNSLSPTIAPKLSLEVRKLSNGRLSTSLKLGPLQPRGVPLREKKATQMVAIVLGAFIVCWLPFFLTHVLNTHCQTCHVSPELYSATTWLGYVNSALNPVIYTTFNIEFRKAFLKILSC
observed_property: pIC50
Units for pIC50: none; it is -log10 of a concentration expressed in mol/L.

Some entries whose results are on file:
- compound: "O=S(=O)(NC1CC(CCN2CCN(c3cccc(Cl)c3Cl)CC2)C1)C1CC1 (stereo not drawn)"
  pIC50: 9.21
- compound: "O=C(N[C@H]1C[C@H](CCN2CCN(c3cccc(Cl)c3Cl)CC2)C1)c1ccno1 [Example 15A]"
  pIC50: 9.51

Please look at the following compound next.
Exam item: // returns reported pIC50 for input `O=C(N[C@H]1C[C@H](CCN2CCN(c3cccc(Cl)c3Cl)CC2)C1)c1nccs1`
Marked response: 9.36

----------
# test_system: 5-HT2A receptor (Homo sapiens, UniProt P28223)
# Sequence (P28223 whole entry): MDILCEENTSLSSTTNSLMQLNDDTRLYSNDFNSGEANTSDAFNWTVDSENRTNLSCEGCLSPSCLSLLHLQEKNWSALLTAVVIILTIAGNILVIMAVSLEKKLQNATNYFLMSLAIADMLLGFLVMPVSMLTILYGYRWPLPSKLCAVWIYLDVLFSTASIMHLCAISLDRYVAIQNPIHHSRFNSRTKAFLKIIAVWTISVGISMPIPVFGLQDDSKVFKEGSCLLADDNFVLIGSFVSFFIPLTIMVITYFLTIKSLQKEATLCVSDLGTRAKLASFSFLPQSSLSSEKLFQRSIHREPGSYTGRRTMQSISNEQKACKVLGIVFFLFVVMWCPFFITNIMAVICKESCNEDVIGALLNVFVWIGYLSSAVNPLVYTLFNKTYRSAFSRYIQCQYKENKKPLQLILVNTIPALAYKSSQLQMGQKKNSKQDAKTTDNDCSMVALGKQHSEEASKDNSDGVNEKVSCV
# test_description: Radioligand binding assay, 5-HT2A receptor ([3H]-Ketanserin)
# Set-up: purchased PerkinElmer
# stated_conditions: Human 5-HT2A Receptor membrane, [3H]-Ketanserin 2 nM; read-out: 5HT-2A Binding IC50
observed_property: IC50 (nM)
Provide the reading as a plain figure in nM.

- molecule: "CCN(C)C(=O)NC1CC(CCN2CCN(c3cccc4sccc34)CC2)C1 (stereo not drawn)"
  IC50 [nM]: 6.39
- molecule: "CC(C)(O)C(=O)NC1CC(CCN2CCN(c3cccc(Cl)c3Cl)CC2)C1 (stereo not drawn)"
  IC50 [nM]: 41.5
- molecule: "O=C(N[C@H]1C[C@H](CCN2CCN(c3cccc(Cl)c3Cl)CC2)C1)c1ccno1 [Example 15A]"
  IC50 [nM]: 0.98
- molecule: "O=C(N[C@H]1C[C@H](CCN2CCN(c3cccc(Cl)c3Cl)CC2)C1)c1cccc2ncccc12 [Example 19A]"
  IC50 [nM]: 1.89
- molecule: "O=C(NC1CC(CCN2CCCN(c3cccc(Cl)c3Cl)CC2)C1)c1ccco1 (stereo not drawn)"
  IC50 [nM]: 6.35
- molecule: "O=C(N[C@H]1C[C@H](CCN2CCN(c3cccc(Cl)c3Cl)CC2)C1)c1nccs1"
  IC50 [nM]: 0.79

Exam item: // returns reported IC50 for input Cc1ncc(C(=O)NC2CC(CCN3CCN(c4cccc(Cl)c4Cl)CC3)C2)o1 (stereo not drawn) [Example 16A]
Marked response: 1.8

Exam item: // returns reported IC50 for input O=C(N[C@H]1C[C@@H](CCN2CCN(c3cccc(Cl)c3Cl)CC2)C1)c1ncco1 [Example 12B]
Marked response: 8.73

Exam item: // returns reported IC50 for input Cc1nc(C(=O)N[C@H]2C[C@H](CCN3CCN(c4cccc(Cl)c4Cl)CC3)C2)co1 [Example 18A]
Marked response: 1.37

Exam item: // returns reported IC50 for input C[C@@H]1CN(CCC2CC(NC(=O)C(C)(C)O)C2)CCN1c1cccc(Cl)c1Cl (stereo partly drawn)
Marked response: 9.63

Exam item: // returns reported IC50 for input `O=C(N[C@H]1C[C@@H](CCN2CCN(c3cccc(Cl)c3Cl)CC2)C1)C1(O)CC1`
Marked response: 48.4

Exam item: // returns reported IC50 for input O=C(N[C@H]1C[C@H](CCN2CCN(c3cccc(Cl)c3Cl)CC2)C1)c1ccon1 [Example 17A]
Marked response: 1.92

Exam item: // returns reported IC50 for input CN(C(=O)NC1CC(CCN2CCN(c3cccc(Cl)c3Cl)CC2)C1)C1CC1 (stereo not drawn)
Marked response: 19.1

Exam item: // returns reported IC50 for input `O=C(N[C@H]1C[C@H](CCN2CCN(c3cccc(Cl)c3Cl)CC2)C1)C1(O)CC1`
Marked response: 5.77

Exam item: // returns reported IC50 for input O=C(N[C@H]1C[C@H](CCN2CCN(c3cccc(Cl)c3Cl)CC2)C1)c1ncco1 [Example 12A]
Marked response: 4.19
